Where these numbers come from: ChEMBL document CHEMBL3627719

# SYSTEM_TESTED: LIM domain kinase 1 (Homo sapiens)
# Sequence (P53667 whole entry, the tested form may be a part): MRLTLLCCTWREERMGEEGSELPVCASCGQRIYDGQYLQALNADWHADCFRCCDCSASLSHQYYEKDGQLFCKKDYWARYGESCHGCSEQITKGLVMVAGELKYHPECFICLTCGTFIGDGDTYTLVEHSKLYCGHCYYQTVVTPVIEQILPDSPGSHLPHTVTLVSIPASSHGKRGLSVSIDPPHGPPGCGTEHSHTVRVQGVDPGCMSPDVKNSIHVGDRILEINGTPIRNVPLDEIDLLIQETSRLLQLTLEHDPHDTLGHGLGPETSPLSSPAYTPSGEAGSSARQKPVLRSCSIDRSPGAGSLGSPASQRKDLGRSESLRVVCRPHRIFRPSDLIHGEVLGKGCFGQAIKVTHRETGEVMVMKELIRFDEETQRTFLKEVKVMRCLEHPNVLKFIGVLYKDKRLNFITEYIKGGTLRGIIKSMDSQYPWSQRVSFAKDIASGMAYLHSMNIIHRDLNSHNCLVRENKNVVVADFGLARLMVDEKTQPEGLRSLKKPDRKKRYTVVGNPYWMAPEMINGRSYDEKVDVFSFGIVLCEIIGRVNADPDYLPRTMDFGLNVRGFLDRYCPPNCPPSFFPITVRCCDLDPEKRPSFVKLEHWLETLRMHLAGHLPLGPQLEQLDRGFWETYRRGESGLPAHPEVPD
METRIC_NAME: IC50 (nM)

>>> reading("COc1ccc(NC(=O)Nc2ccc(-c3ncnc4[nH]cc(C)c34)cc2F)cc1")
10
